- system name: D2 receptor (Rattus norvegicus, UniProt P61169)
- Sequence (P61169 whole entry): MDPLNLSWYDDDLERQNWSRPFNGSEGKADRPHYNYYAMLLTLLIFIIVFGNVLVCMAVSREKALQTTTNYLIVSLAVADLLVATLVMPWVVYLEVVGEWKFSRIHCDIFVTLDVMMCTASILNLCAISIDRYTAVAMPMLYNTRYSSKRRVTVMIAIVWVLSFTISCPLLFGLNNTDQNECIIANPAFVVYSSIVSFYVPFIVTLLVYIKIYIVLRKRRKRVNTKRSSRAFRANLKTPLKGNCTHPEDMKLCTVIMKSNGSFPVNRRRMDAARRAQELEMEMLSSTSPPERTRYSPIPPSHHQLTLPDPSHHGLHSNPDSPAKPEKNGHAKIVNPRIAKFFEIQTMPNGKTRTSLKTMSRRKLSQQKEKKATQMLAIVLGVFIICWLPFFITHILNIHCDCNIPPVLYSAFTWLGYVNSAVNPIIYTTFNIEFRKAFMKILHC
- experiment description: Receptor binding, D2 receptor, [3H]-domperidone, rat striatal membranes (part A)
- Design: membranes from striatal tissues were prepared; from tissue; host or cells: rat striatum (membranes); species or system rat (Sprague-Dawley)
- experimental setup: [3H]-domperidone; rat striatal membranes; Table 1; read-out: Affinity Ki for D2 receptor
Below: a set of entries, each annotated with reported pKi.
Here pKi is given on a logarithmic scale as minus log10 of the concentration in mol/L.

| molecule | pKi |
| --- | --- |
| CCCN(CCCCCCNCCOc1ccccc1OC)[C@H]1CCc2c(ccc(O)c2O)C1 | 8.40 |

Ask: Entry Oc1ccc(CCNCCCCCCNCCc2ccccc2)cc1O [Dopexamine, dopexamine, reference compound] , system D2 receptor (Rattus norvegicus, UniProt P61169): what pKi was measured?
Result: 6.84
